Exercise: state measured viability, T/C for each of the compounds provided.
System: 186277-243-T-J2-PDC complex spheroid growth
assay.text: Anticancer human tumor 186277-243-T-J2-PDC patient-derived colon adenocarcinoma cell line growth inhibition [AhR]
run.conditions: second compound 0.1 µM; first compound 0.316 µM; stronger effect = lower value
Quick reminder: number only, in %, skip the unit.

Exam item: Param readout= viability, T/C; system= 186277-243-T-J2-PDC complex spheroid growth; entry= COc1ccc([C@@H](O)c2cc(-c3ncnc4cc(N5CCOCC5)ccc34)c(F)cc2Cl)nn1 + CC(CO)NC(=O)c1cc(-c2ccc(Cl)cc2)nn(-c2cnn(C)c2)c1=O ; returns value.
Marked response: 96.8

Exam item: # repeat for Nc1ncn(C2CC(O)C(CO)O2)c(=O)n1 (stereo unspecified) + Cc1ccccc1N=Nc1ccc(NC(=O)c2ccnn2C)c(C)c1
Marked response: 103

Exam item: And COc1cc(Nc2ncc3c(n2)-c2ccc(Cl)cc2C(c2c(F)cccc2OC)=NC3)ccc1C(=O)O + CC(CO)NC(=O)c1cc(-c2ccc(Cl)cc2)nn(-c2cnn(C)c2)c1=O ?
Marked response: 21.5

Exam item: Likewise for Nc1ccn(C2OC(CO)C(O)C2(F)F)c(=O)n1 (stereo unspecified) + Cc1cncc(-c2nc(NCCc3c[nH]c4ccccc34)c3ncn(C(C)C)c3n2)c1 ?
Marked response: 9.08

Exam item: Consider next the compound O=C(C=Cc1cccc(S(=O)(=O)Nc2ccccc2)c1)NO + Cc1cncc(-c2nc(NCCc3c[nH]c4ccccc34)c3ncn(C(C)C)c3n2)c1 in the same way.
Marked response: 94

Exam item: Consider next the compound O=C(c1cc(Cc2n[nH]c(=O)c3ccccc23)ccc1F)N1CCN(C(=O)C2CC2)CC1 + Cc1cncc(-c2nc(NCCc3c[nH]c4ccccc34)c3ncn(C(C)C)c3n2)c1 in the same way.
Marked response: 88.1

---

Test system: 186277-243-T-J2-PDC complex spheroid growth
assay.text: Anticancer human tumor 186277-243-T-J2-PDC cell line growth inhibition [AhR];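 note: luminescent signal used as a stand-in for viable cell amount; spheroids exposed to compounds for seven days before the viability read; 100% = DMSO vehicle control wells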
run.conditions: second compound 0.1 µM; first compound 3.16 µM; stronger effect = lower value
quantity.measured: viability, T/C

Exam item: Query: viability, T/C; subject: COc1cc(C2c3cc4c(cc3C(OC3OC5COC(C)OC5C(O)C3O)C3COC(=O)C23)OCO4)cc(OC)c1O (centres undefined) + Cc1cncc(-c2nc(NCCc3c[nH]c4ccccc34)c3ncn(C(C)C)c3n2)c1
Marked response: 52%

Exam item: Likewise for Nc1ccn(C2OC(CO)C(O)C2(F)F)c(=O)n1 (centres undefined) + CC(CO)NC(=O)c1cc(-c2ccc(Cl)cc2)nn(-c2cnn(C)c2)c1=O ?
Marked response: 4.16%

Exam item: Next compound: COc1cccc2c1C(=O)c1c(O)c3c(c(O)c1C2=O)CC(O)(C(=O)CO)CC3OC1CC(N)C(O)C(C)O1 (centres undefined) + CC(CO)NC(=O)c1cc(-c2ccc(Cl)cc2)nn(-c2cnn(C)c2)c1=O
Marked response: 0.08%

Exam item: What do you get for CC1COCCN1c1cc(C2(S(C)(=N)=O)CC2)nc(-c2ccnc3[nH]ccc23)n1 (centres undefined) + Cc1ccccc1N=Nc1ccc(NC(=O)c2ccnn2C)c(C)c1 ?
Marked response: 35.8%

---

Tested on: 186277-243-T-J2-PDC complex spheroid growth
assay.text: Anticancer human tumor 186277-243-T-J2-PDC cell line growth inhibition [AhR]; active means viability on the fitted dose curve at most 10% of control; inactive means the rest;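 note: luminescent signal used as a stand-in for viable cell amount; spheroids exposed to compounds for seven days before the viability read; 100% = DMSO vehicle control wells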
run.conditions: second compound 0.316 µM; first compound 1 µM
Just give me one of these, please: T (active), F (inactive)

Exam item: // outcome(item) with item = CC(C)c1c(-c2ccccc2)nc2c(C#N)c[nH]n2c1=O + CC(CO)NC(=O)c1cc(-c2ccc(Cl)cc2)nn(-c2cnn(C)c2)c1=O
Marked response: F

Exam item: Next: Nc1ccccc1NC(=O)c1ccc(CNC(=O)OCc2cccnc2)cc1 + Cc1cncc(-c2nc(NCCc3c[nH]c4ccccc34)c3ncn(C(C)C)c3n2)c1
Marked response: F

Exam item: What do you have for COc1ccc([C@@H](O)c2cc(-c3ncnc4cc(N5CCOCC5)ccc34)c(F)cc2Cl)nn1 + CC(CO)NC(=O)c1cc(-c2ccc(Cl)cc2)nn(-c2cnn(C)c2)c1=O ?
Marked response: F

Exam item: Also, Nc1ccn(C2OC(CO)C(O)C2(F)F)c(=O)n1 (stereo not drawn) + Cc1cncc(-c2nc(NCCc3c[nH]c4ccccc34)c3ncn(C(C)C)c3n2)c1 please.
Marked response: T

Exam item: Another: NS(=O)(=O)OCC1CC(n2ccc3c(NC4CCc5ccccc54)ncnc32)CC1O (stereo not drawn) + Cc1ccccc1N=Nc1ccc(NC(=O)c2ccnn2C)c(C)c1
Marked response: F

Exam item: Ok, now CC1COCCN1c1cc(-c2ccnn2C)c2ccnc(-c3ccn[nH]3)c2n1 (stereo not drawn) + Cc1ccccc1N=Nc1ccc(NC(=O)c2ccnn2C)c(C)c1
Marked response: T

Exam item: Repeat with O=C(c1cc(Cc2n[nH]c(=O)c3ccccc23)ccc1F)N1CCN(C(=O)C2CC2)CC1 + Cc1ccccc1N=Nc1ccc(NC(=O)c2ccnn2C)c(C)c1
Marked response: F

Exam item: Please answer likewise for CC1(C)CCC(CN2CCN(c3ccc(C(=O)NS(=O)(=O)c4ccc(NCC5CCOCC5)c([N+](=O)[O-])c4)c(Oc4cnc5[nH]ccc5c4)c3)CC2)=C(c2ccc(Cl)cc2)C1 + Cc1cncc(-c2nc(NCCc3c[nH]c4ccccc34)c3ncn(C(C)C)c3n2)c1
Marked response: F
